Measurement Name: melting point

Ask: Find the recorded melting point belonging to "COc1ccc(-n2c(-c3cc(OC)c(OC)c(OC)c3)nc3c2CCCC3)cc1" and report it.
Reply: 110 to 111 °C

Ask: Sample "COc1cc(-c2nc3c(n2-c2ccc(F)cc2)CCCC3)cc(OC)c1OC" — what was its melting point?
Reply: 152 to 154 °C

Ask: Looking for the measured melting point of "COc1cc(-c2nc3c(n2-c2ccc(O)cc2)CCCC3)cc(OC)c1OC" , can you help?
Reply: 259 to 260 °C

Ask: Quick one: melting point for "COc1cc(-c2nc3c(n2-c2ccc(Cl)cc2)CCCC3)cc(OC)c1OC" ?
Reply: 157 to 158 °C

---

Answer each item with its documented IC50.
Test system: Fibroblast
Assay: MTT assay, cytotoxicity against normal fibroblast cells
Format: cell-based
Details: Homo sapiens, 24 h incubation
Quick reminder: number only, in µM, skip the unit.

Ask: Which IC50 reading was recorded for the compound "COc1cc(-c2nc3c(n2-c2cccc(Cl)c2)CCCC3)cc(OC)c1OC" ?
Reply: 87.3

Ask: Using the record for "COc1cc(-c2nc3c(n2-c2ccc(Cl)cc2)CCCC3)cc(OC)c1OC" , report its IC50.
Reply: 54

Ask: What does the data say about its IC50? Entry: "COc1ccc(-n2c(-c3cc(OC)c(OC)c(OC)c3)nc3c2CCCC3)cc1"
Reply: 28.5

Ask: What measured IC50 goes with "COc1cc(-c2nc3c(n2-c2ccc(F)cc2)CCCC3)cc(OC)c1OC" ?
Reply: 59.5

Ask: Bench note: what IC50 did "COc1cc(-c2nc3c(n2-c2ccc(O)cc2)CCCC3)cc(OC)c1OC" show?
Reply: 80.8

---

Test system: T47D
Assay: MTT assay, cytotoxicity against T47D breast cancer cells
Format: cell-based, human
Conditions: selectivity index = IC50 Fibroblast / IC50 T47D
Measurement Name: SI T47D
The response must contain the number and no unit.

Ask: For the molecule "COc1cc(-c2nc3c(n2-c2ccc(O)cc2)CCCC3)cc(OC)c1OC" , what SI T47D is on record?
Reply: 2

Ask: Query (molecule): "COc1cc(-c2nc3c(n2-c2ccc(Cl)cc2)CCCC3)cc(OC)c1OC" ; field requested: SI T47D
Reply: 1.6

Ask: Please report the recorded SI T47D for "COc1cc(-c2nc3c(n2-c2ccc(F)cc2)CCCC3)cc(OC)c1OC" .
Reply: 2

Ask: Form field: reported SI T47D of "COc1cc(-c2nc3c(n2-c2cccc(Cl)c2)CCCC3)cc(OC)c1OC"
Reply: 1.5

Ask: Fill in the blank: the reported SI T47D of "COc1ccc(-n2c(-c3cc(OC)c(OC)c(OC)c3)nc3c2CCCC3)cc1" is ____.
Reply: 0.69

---

Please provide measured IC50 for the entries that follow.
System: A549
Experiment: MTT assay, cytotoxicity against A549 lung cancer cells
Assay type: cell-based, human
Details: Homo sapiens; A549 cells, 24 h incubation, MTT
Express your answer in µM, writing the number without its unit.

Ask: Given the entry COc1cccc(-n2c(-c3cc(OC)c(OC)c(OC)c3)nc3c2CCCC3)c1 [Compound 7b] , report its measured IC50.
Reply: 30.4

Ask: For COc1cc(-c2nc3c(n2-c2ccc(F)cc2)CCCC3)cc(OC)c1OC [Compound 7d] , what is its reported IC50?
Reply: 86.5

Ask: So what does the record say about IC50 for COc1cc(-c2nc3c(n2-c2ccc(Cl)cc2)CCCC3)cc(OC)c1OC [Compound 7e] ?
Reply: 87

Ask: # query: IC50 of entry COc1ccc(-n2c(-c3cc(OC)c(OC)c(OC)c3)nc3c2CCCC3)cc1 [Compound 7a]
Reply: 83.6
